species: Rattus norvegicus; assay: Inhibition of protein tyrosine phosphatase (PTP) activity in rat liver endosome insulin receptor (IR) dephosphorylation assay at 1 mM
Decide using inhibition: a value greater than or equal to 60% is True, a smaller one is False.

Consider the worked cases shown below.
compound: O=C1OI(O)c2ccccc21
discrete_label: False
//
compound: O=[N+]([O-])c1cccc(I(=O)=O)c1
discrete_label: True
//
compound: O=C(O)c1cccc(I(=O)=O)c1
discrete_label: True
//
compound: OO
discrete_label: True
//
compound: O=I(=O)c1c[nH]cn1
discrete_label: False

Can `O=I(=O)c1ccc(I(=O)=O)cc1` be said to have inhibition at or above 60%?
False

Can O=C1OI(=O)(O)c2ccccc21 (configuration not stated) be said to have inhibition at or above 60%?
True

* * *

Target: Tyrosine-protein phosphatase non-receptor type 1 (Homo sapiens, UniProt P18031)
Sequence (P18031 whole entry): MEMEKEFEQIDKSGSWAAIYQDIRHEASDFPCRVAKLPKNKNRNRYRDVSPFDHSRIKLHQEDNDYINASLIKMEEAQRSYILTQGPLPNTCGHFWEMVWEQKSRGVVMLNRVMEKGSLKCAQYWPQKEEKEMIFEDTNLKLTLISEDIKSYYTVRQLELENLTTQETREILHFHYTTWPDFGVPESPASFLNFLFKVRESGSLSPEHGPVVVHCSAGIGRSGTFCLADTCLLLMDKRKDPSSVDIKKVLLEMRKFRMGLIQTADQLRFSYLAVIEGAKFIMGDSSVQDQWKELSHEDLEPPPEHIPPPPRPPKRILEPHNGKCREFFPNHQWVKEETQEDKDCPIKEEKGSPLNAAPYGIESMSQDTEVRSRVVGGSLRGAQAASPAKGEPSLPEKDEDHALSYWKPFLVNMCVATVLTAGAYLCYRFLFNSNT
Assay: Inhibition of protein tyrosine phosphatase 1B (PTP1B) activity in 3,6-fluorescein diphosphate (FDP) assay
result_type: pIC50
Please note pIC50 is a logarithmic value: minus log10 of concentration in mol/L. Answer with that number alone.

Would you please look over these solved cases?
compound: O=C(O)c1cccc(I(=O)=O)c1
pIC50: 3.05
--
compound: CC(C)(C)OOI1OC(=O)c2ccccc21
pIC50: 3.64

Data request, read-out pIC50, for O=P1(O)Oc2ccccc2I(=O)(O)O1 (stereo unspecified)
3.46

Data request, read-out pIC50, for `Cc1ccc(I(=O)=O)cc1`
2.82

Data request, read-out pIC50, for `O=I(=O)c1ccc(I(=O)=O)cc1`
2.85

Data request, read-out pIC50, for `CC(=O)OI1(OC(C)=O)(OC(C)=O)OC(=O)c2ccccc21`
3.89
